Here's what we have: IC50 numbers for c-Met kinase (Homo sapiens, UniProt P08581).

Request: GET /values?readout=IC50&item= O=C(Nc1ccc(F)cc1)C1(C(=O)Nc2ccc(Oc3ccnc(Nc4ccc(NS(=O)(=O)c5ccccc5)cc4)n3)cc2)CC1 [Compound 18b]
Response: 941 nM

Request: Follow-up item: Cc1c(C(=O)Nc2ccc(Oc3ccnc(Nc4ccc(NC(=O)CN5CCN(C)CC5)cc4)n3)cc2)c(=O)n(-c2ccccc2)n1C [Compound 14b]
Response: 179 nM

Request: Follow-up item: Cc1c(C(=O)Nc2ccc(Oc3ccnc(Nc4ccc(NS(=O)(=O)c5ccccc5)cc4)n3)cc2)c(=O)n(-c2ccccc2)n1C [Compound 14c]
Response: > 1000 nM

Request: Follow-up item: O=C(Nc1ccc(F)cc1)C1(C(=O)Nc2ccc(Oc3ccnc(Nc4ccc(CCC(O)c5ccccc5)cc4)n3)cc2)CC1 (stereo not drawn) [Compound 18f]
Response: > 1000 nM

Request: Follow-up item: COCCNc1ccc(Nc2nccc(Oc3ccc(NC(=O)C4(C(=O)Nc5ccc(F)cc5)CC4)cc3)n2)cc1 [Compound 18e]
Response: 77.3 nM

Request: Follow-up item: Cc1c(C(=O)Nc2ccc(Oc3ccnc(Nc4cccc(C(=O)NCCCN5CCOCC5)c4)n3)cc2)c(=O)n(-c2ccccc2)n1C [Compound 14e]
Response: 321 nM

---

- experiment summary: Liver microsome stability assay
- Assay type: in vitro ADME
- measurement setup: pH 7.4; human liver microsomes 0.2 mg/mL, test compound 1 μM, NADPH; read-out: T1/2 Human
measured metric: half-life at 1 μM (min)
Number in min, nothing else.

Request: GET /values?readout=half-life at 1 μM&item= CN1CCN(CC(=O)Nc2ccc(Nc3nccc(Oc4ccc(NC(=O)C5(C(=O)Nc6ccc(F)cc6)CC5)cc4)n3)cc2)CC1 [Compound 18c]
Response: 53.1

Request: Follow-up item: C[C@]12CC[C@H]3[C@@H](CCC4=CC(=O)CC[C@@]43C)[C@@H]1CC[C@@H]2O [Testosterone, reference compound]
Response: 32.1

Request: Follow-up item: CC(C(=O)Nc1ccc(Nc2nccc(Oc3ccc(NC(=O)C4(C(=O)Nc5ccc(F)cc5)CC4)cc3)n2)cc1)N1CCN(C)CC1 (centres unmarked) [Compound 18n]
Response: 11.9

Request: Follow-up item: CN1CCN(CC(=O)Nc2ccc(Nc3nccc(Oc4ccc(NC(=O)C5(C(=O)Nc6ccc(F)cc6)CC5)cc4)n3)cc2F)CC1 [Compound 18l]
Response: 9.6

Request: Follow-up item: CN1CCN(CC(=O)Nc2cccc(Nc3nccc(Oc4ccc(NC(=O)C5(C(=O)Nc6ccc(F)cc6)CC5)cc4)n3)c2)CC1 [Compound 18o]
Response: 8.6

---

Here's what we have: pIC50 numbers for Mer kinase (Homo sapiens, UniProt Q12866).
Remember, pIC50 is on a log scale: it is -log10 of the molar concentration.

Request: GET /values?readout=pIC50&item= CCN1CCN(CC(=O)Nc2ccc(Nc3nccc(Oc4ccc(NC(=O)C5(C(=O)Nc6ccc(F)cc6)CC5)cc4)n3)cc2)CC1 [Compound 18g]
Response: 7.69

Request: Follow-up item: CN1CCN(CC(=O)Nc2cccc(Nc3nccc(Oc4ccc(NC(=O)C5(C(=O)Nc6ccc(F)cc6)CC5)cc4)n3)c2)CC1 [Compound 18o]
Response: 7.61

Request: Follow-up item: O=C(NCCCN1CCOCC1)c1ccc(Nc2nccc(Oc3ccc(NC(=O)C4(C(=O)Nc5ccc(F)cc5)CC4)cc3)n2)cc1 [Compound 18d]
Response: 7.37

Request: Follow-up item: Cc1c(C(=O)Nc2ccc(Oc3ccnc(Nc4ccc(NS(=O)(=O)c5ccccc5)cc4)n3)cc2)c(=O)n(-c2ccccc2)n1C [Compound 14c]
Response: 6.78

Request: Follow-up item: Cc1c(C(=O)Nc2ccc(Oc3ccnc(Nc4ccc(NC(=O)CN5CCN(C)CC5)c(F)c4)n3)cc2)c(=O)n(-c2ccccc2)n1C [Compound 14h]
Response: 7.90

Request: Follow-up item: CN1CCN(CC(=O)N(C)c2ccc(Nc3nccc(Oc4ccc(NC(=O)C5(C(=O)Nc6ccc(F)cc6)CC5)cc4)n3)cc2)CC1 [Compound 18m]
Response: 6.90

Request: Follow-up item: CN1CCN(CC(=O)Nc2ccc(Nc3nccc(Oc4ccc(NC(=O)C5(C(=O)Nc6ccc(F)cc6)CC5)cc4)n3)cc2F)CC1 [Compound 18l]
Response: 7.74

Request: Follow-up item: O=C(CN1CCN(CC2CC2)CC1)Nc1ccc(Nc2nccc(Oc3ccc(NC(=O)C4(C(=O)Nc5ccc(F)cc5)CC4)cc3)n2)cc1 [Compound 18i]
Response: 7.51

Request: Follow-up item: CC(=O)N1CCN(CC(=O)Nc2ccc(Nc3nccc(Oc4ccc(NC(=O)C5(C(=O)Nc6ccc(F)cc6)CC5)cc4)n3)cc2)CC1 [Compound 18j]
Response: 7.24

Request: Follow-up item: CC(C(=O)Nc1ccc(Nc2nccc(Oc3ccc(NC(=O)C4(C(=O)Nc5ccc(F)cc5)CC4)cc3)n2)cc1)N1CCN(C)CC1 (centres unmarked) [Compound 18n]
Response: 7.50
